tested on: LOC_OS06G22820-cb001; experiment: thermal shift delta Tm vs DMSO control; higher = stronger stabilization (binding); conditions: 12.5 µM; protein concentration 2 µM;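 further: purified Escherichia coli-expressed rice kinase domain construct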
Sequence (as listed by the source): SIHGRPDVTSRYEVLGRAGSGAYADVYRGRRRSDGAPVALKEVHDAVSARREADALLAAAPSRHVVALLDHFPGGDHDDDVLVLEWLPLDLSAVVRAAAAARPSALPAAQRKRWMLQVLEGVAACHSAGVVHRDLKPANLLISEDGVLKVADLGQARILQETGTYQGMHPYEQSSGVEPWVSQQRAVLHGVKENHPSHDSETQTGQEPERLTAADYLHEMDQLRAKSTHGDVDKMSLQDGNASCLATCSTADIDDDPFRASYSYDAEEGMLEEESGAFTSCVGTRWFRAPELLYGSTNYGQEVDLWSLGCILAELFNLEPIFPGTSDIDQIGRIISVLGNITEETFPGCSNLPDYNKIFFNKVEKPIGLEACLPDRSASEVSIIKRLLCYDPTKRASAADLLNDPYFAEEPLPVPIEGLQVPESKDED
Structures can show the parent of a compound that is named as a salt.
Could you please report measured thermal shift delta Tm for the items listed next?
Report the value in °C with no unit label.

Note thermal shift delta Tm for the compound shown: C[C@@H]1COCCN1c1cc(C2([S@](C)(=N)=O)CC2)nc(-c2cc[nH]c3nccc2-3)n1
-0.1

Note thermal shift delta Tm for the compound shown: O=C(O)CCC(=O)Nc1ccc(Br)cn1 [Bikinin]
0.48

Note thermal shift delta Tm for the compound shown: CC(C)(C)c1nc(-c2cccc(NS(=O)(=O)c3c(F)cccc3F)c2F)c(-c2ccnc(N)n2)s1
0.62

Note thermal shift delta Tm for the compound shown: COCCNCc1ccc(-c2cc3nccc(Oc4ccc(NC(=O)C5(C(=O)Nc6ccc(F)cc6)CC5)cc4F)c3s2)nc1 [Sitravatinib (MGCD516)]
0.6

Note thermal shift delta Tm for the compound shown: CNC(=O)c1cc(Oc2ccc3nc(N[C@@H]4CCCC[C@H]4O)sc3c2)ccn1
0.57

Note thermal shift delta Tm for the compound shown: CN1CCN(c2cccc(Nc3nc4c(-c5ccc(S(C)(=O)=O)cc5)cccn4n3)c2)CC1
0.43

Note thermal shift delta Tm for the compound shown: COc1ccc(-c2ccc3c(N4CCOCC4)nc(N4C[C@@H](C)O[C@@H](C)C4)nc3n2)cc1CO
0.14

Note thermal shift delta Tm for the compound shown: Cc1c(NC(=O)c2ccc(C(C)(C)C)cc2)cccc1-c1cn(C)c(=O)c(Nc2ccc(C(=O)N3CCOCC3)cc2)n1
0.84

Note thermal shift delta Tm for the compound shown: CO[C@H]1C[C@@H]2CC[C@@H](C)[C@@](O)(O2)C(=O)C(=O)N2CCCC[C@H]2C(=O)O[C@H]([C@H](C)C[C@@H]2CC[C@@H](OP(C)(C)=O)[C@H](OC)C2)CC(=O)[C@H](C)/C=C(\C)[C@@H](O)[C@@H](OC)C(=O)[C@H](C)C[C@H](C)/C=C/C=C/C=C/1C [Ridaforolimus (Deforolimus, MK-8669)]
0.77

Note thermal shift delta Tm for the compound shown: CC#CC(=O)N1CC[C@@H](n2c(=O)n(-c3ccc(Oc4ccccc4)cc3)c3c(N)ncnc32)C1 [ONO-4059 (GS-4059) hydrochloride]
0.35

Note thermal shift delta Tm for the compound shown: Cc1cc(Nc2cc(CN3CCOCC3)c3nc(C)c(Cc4ccc(Cl)cc4F)n3n2)n[nH]1
-0.03

Note thermal shift delta Tm for the compound shown: CN(C)C/C=C/C(=O)Nc1cc2c(Nc3ccc(F)c(Cl)c3)ncnc2cc1O[C@H]1CCOC1 [Afatinib (BIBW2992) Dimaleate]
0.61

Note thermal shift delta Tm for the compound shown: O=c1cc(N2CCOCC2)oc2c(-c3ccccc3)cccc12
1.05

Note thermal shift delta Tm for the compound shown: CN(C)Cc1cccc(N/C(=C2\C(=O)Nc3cc(C(N)=O)ccc32)c2ccccc2)c1
0.79

Note thermal shift delta Tm for the compound shown: CCN1CCN(Cc2ccc(-c3cc4c(N[C@H](C)c5ccccc5)ncnc4[nH]3)cc2)CC1
0.76

Note thermal shift delta Tm for the compound shown: CC(C)S(=O)(=O)c1ccc2nccc(Nc3ccc4scnc4c3)c2c1
0.32

* * *

tested on: LOC_OS06G22820-cb001; assay: thermal shift delta Tm vs DMSO control; higher = stronger stabilization (binding); conditions: 12.5 µM; protein concentration 2 µM;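 further: purified Escherichia coli-expressed rice kinase domain construct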
Counter-ions that a name gives are not always drawn.
Could you please report measured thermal shift delta Tm for the items listed next?
Report the value in °C with no unit label.

Note thermal shift delta Tm for the compound shown: Nc1ncccc1-c1nc2ccc(-c3ccccc3)nc2n1-c1ccc(C2(N)CCC2)cc1 [Miransertib (ARQ 092) HCl]
0.24

Note thermal shift delta Tm for the compound shown: O=C(Nc1nc2cccc(-c3ccc(CN4CCS(=O)(=O)CC4)cc3)n2n1)C1CC1
0.31

Note thermal shift delta Tm for the compound shown: C[C@@H]1CN(C(=O)c2ccc(NC(=O)c3cc(O[C@H](C)c4c(Cl)ccc(F)c4Cl)c(N)nn3)cc2)C[C@H](C)N1
0.22

Note thermal shift delta Tm for the compound shown: CC(C)c1cnn2c(NCc3ccccc3)cc(NCCCCCCN)nc12
0.96

Note thermal shift delta Tm for the compound shown: COc1ccc([C@@H]2OC[C@H]3[C@@H]2CO[C@@H]3c2ccc(O[C@@H]3O[C@H](CO)[C@@H](O)[C@H](O)[C@H]3O)c(OC)c2)cc1OC
0.41

Note thermal shift delta Tm for the compound shown: CS(=O)(=O)c1ccc(-c2cnc(N)c(C(=O)Nc3ccccc3)n2)cc1
0.37

Note thermal shift delta Tm for the compound shown: C[C@@H](Oc1ccc2[nH]nc(/C=C/c3cnn(CCO)c3)c2c1)c1c(Cl)cncc1Cl
-0.35

Note thermal shift delta Tm for the compound shown: O=C(NCCCNc1nc(Nc2cccc(NC(=O)N3CCCC3)c2)ncc1I)c1cccs1
0.36

Note thermal shift delta Tm for the compound shown: O=C1NC(=O)/C(=C/c2ccc3c(c2)OC(F)(F)O3)S1
0.72

Note thermal shift delta Tm for the compound shown: Cc1nc(Nc2cnn(C3CCNCC3)c2)nc2c1N(C)C(=O)c1cc3ccccc3cc1N2C
0.22

Note thermal shift delta Tm for the compound shown: Cc1[nH]c(/C=C2\C(=O)Nc3ccc(S(=O)(=O)Cc4c(Cl)cccc4Cl)cc32)c(C)c1C(=O)N1CCC[C@@H]1CN1CCCC1
0.86

Note thermal shift delta Tm for the compound shown: CCOC(=O)c1cnc2ccc(-c3cncc(NS(=O)(=O)c4ccccc4)c3)cn12
0.38

Note thermal shift delta Tm for the compound shown: CC1Oc2cc(cnc2N)-c2c(nn(C)c2C#N)CN(C)C(=O)c2ccc(F)cc21 (configuration not stated)
0.16

Note thermal shift delta Tm for the compound shown: Cc1cc(NC(=O)c2cccc(NC(=O)/C=C/CN(C)C)c2)ccc1Nc1nccc(-c2cccnc2)n1
1.05

Note thermal shift delta Tm for the compound shown: Clc1ccc(C2(c3ccc(-c4cn[nH]c4)cc3)CCNCC2)cc1
0.61

Note thermal shift delta Tm for the compound shown: Cc1cc(O)c2c(c1)C(=O)c1cccc(O)c1C2=O
-0.85

Note thermal shift delta Tm for the compound shown: Cc1ccc([N+](=O)[O-])cc1S(=O)(=O)N(C)/N=C/c1cnc2ccc(Br)cn12
0.41

Note thermal shift delta Tm for the compound shown: CC(C)=CC[C@@H](O)C1=CC(=O)c2c(O)ccc(O)c2C1=O
-0.26

Note thermal shift delta Tm for the compound shown: Cc1cc(Nc2ncnc3ccc(NC4=NC(C)(C)CO4)cc23)ccc1Oc1ccn2ncnc2c1
0.49

Note thermal shift delta Tm for the compound shown: CC1(COc2ccc3c(c2)ncn3-c2ccc3cccc(N4CCC(N)CC4)c3n2)COC1
0.26

Note thermal shift delta Tm for the compound shown: CN1CCC(Nc2nc(Nc3ccc(Oc4ccccc4)cc3)c3c(=O)[nH]cc(Br)c3n2)CC1
0.71

Note thermal shift delta Tm for the compound shown: FC(F)c1nc2ccccc2n1-c1nc(N2CCOCC2)nc(N2CCOCC2)n1
0.93

Note thermal shift delta Tm for the compound shown: O=C(NOCCO)c1ccc2cncn2c1Nc1ccc(I)cc1F
0.39

Note thermal shift delta Tm for the compound shown: CN1C(=O)[C@@H](NC(=O)c2n[nH]c(Cc3ccccc3)n2)COc2ccccc21
0.48

Note thermal shift delta Tm for the compound shown: CC(C)CCN1c2nc(Nc3cc(F)c(O)c(F)c3)ncc2N(C)C(=O)C1C (configuration not stated)
1.8

Note thermal shift delta Tm for the compound shown: O=C(Nc1nccs1)C(c1cc(F)ccc1O)N1Cc2ccccc2C1=O (configuration not stated)
0.38

Note thermal shift delta Tm for the compound shown: C[C@@H](Nc1cc(F)cc(F)c1)c1cc(C(=O)N(C)C)cc2c(=O)cc(N3CCOCC3)oc12
0.43

Note thermal shift delta Tm for the compound shown: COc1cc(OC)cc(-c2cc3cnc(N)nc3nc2NC(=O)NC(C)(C)C)c1
0.29

Note thermal shift delta Tm for the compound shown: Cn1cc(-c2ccc(F)c(C(F)(F)F)c2)nc1C1CCN(c2ncnc3[nH]ncc23)CC1
0.36

Note thermal shift delta Tm for the compound shown: O=c1ccc2ccc(O)c(O)c2o1
0.83

Note thermal shift delta Tm for the compound shown: C=CC(=O)Nc1cccc(Sc2nc(Nc3ccc(N4CCN(C)CC4)cc3)ncc2Cl)c1
-0.33

Note thermal shift delta Tm for the compound shown: CNC(=O)c1ccc(Nc2ncc(C(F)(F)F)c(NCc3nccnc3N(C)S(C)(=O)=O)n2)cc1
0.27

Note thermal shift delta Tm for the compound shown: CC(C)(CO)n1cc(C(=O)c2cncc(NC(=O)Cc3ccc(Cl)cn3)c2)c2cnc(N)nc21
0.45

Note thermal shift delta Tm for the compound shown: Oc1c(F)cc(-c2cnccc2-c2ccc(N3CCOCC3)cc2)cc1F
0.6

Note thermal shift delta Tm for the compound shown: CCn1c(N)c(C(=O)NC)c(=O)c2ccc(C#CC(C)(O)COC)nc21 (configuration not stated)
0.3

Note thermal shift delta Tm for the compound shown: CCCS(=O)(=O)Nc1ccc(F)c(C(=O)c2c[nH]c3ncc(Cl)cc23)c1F
0.42

Note thermal shift delta Tm for the compound shown: Cc1cc([C@@H](C)Nc2ccccc2C(=O)O)c2nc(N3CCOCC3)cc(=O)n2c1
0.63

Numbers sourced from the supplement of paper PMC9694430.
